test system: Bacteroides thetaiotaomicron; assay: Antibacterial activity against Bacteroides thetaiotaomicron isolated from patient with diabetic foot infection after 44 to 48 hrs by agar dilution method; assay type: functional
assay metric: MIC90 (µg/mL)

compound: C[C@@H](O)[C@H]1C(=O)N2C(C(=O)O)=C(S[C@@H]3CN[C@H](C(=O)Nc4cccc(C(=O)O)c4)C3)[C@H](C)[C@H]12 [ERTAPENEM]
units of measure: µg/mL
readout qualifier: =
recorded number: 2

compound: C[C@@H](O)[C@H]1C(=O)N2C(C(=O)O)=C(S[C@@H]3CN[C@H](CNS(N)(=O)=O)C3)[C@H](C)[C@H]12 [DORIPENEM]
units of measure: µg/mL
readout qualifier: =
recorded number: 1

compound: C[C@@H](O)[C@H]1C(=O)N2C(C(=O)O)=C(SCCNC=N)C[C@H]12 [IMIPENEM ANHYDROUS]
units of measure: µg/mL
readout qualifier: =
recorded number: 1

compound: CCC[C@@H]1C[C@@H](C(=O)N[C@@H]([C@H]2O[C@H](SC)[C@H](O)[C@@H](O)[C@H]2O)[C@H](C)Cl)N(C)C1 [CLINDAMYCIN]
units of measure: µg/mL
readout qualifier: >
recorded number: 64

compound: Cc1ncc([N+](=O)[O-])n1CCO [METRONIDAZOLE]
units of measure: µg/mL
readout qualifier: =
recorded number: 1

compound: C[C@@H](O)[C@H]1C(=O)N2C(C(=O)O)=C(S[C@@H]3CN[C@H](C(=O)N(C)C)C3)[C@H](C)[C@H]12 [MEROPENEM]
units of measure: µg/mL
readout qualifier: =
recorded number: 1
